# Tested on: Escherichia coli TOP10
# Assay Details: shrunken log2 fold change of peptide-encoding DNA abundance (4.5 h post-induction vs induction); higher = less antimicrobial activity (less host growth inhibition)
# Protocol Conditions: time post-induction: 4.5 h; library: site-saturation at positions 5, 18, 19, 20
Categorize each record by its shrunken log2 fold change using class A (below -0.1), class B (-0.1 to below 0.02), class C (0.02 or more)

[
  {
    "Sequence Content": "RRIRCRPPRLPRPRPRPKWCPRP",
    "Label Value": "class A"
  },
  {
    "Sequence Content": "RRIRFRPPRLPRPRPRPPQYPRP",
    "Label Value": "class C"
  },
  {
    "Sequence Content": "RRIRFRPPRLPRPRPRPVIHPRP",
    "Label Value": "class A"
  },
  {
    "Sequence Content": "RRIRIRPPRLPRPRPRPATNPRP",
    "Label Value": "class A"
  },
  {
    "Sequence Content": "RRIRNRPPRLPRPRPRPIFVPRP",
    "Label Value": "class B"
  }
]

Just checking, what class would you give "RRIRTRPPRLPRPRPRPILGPRP" here?
class C

// repeat for "RRIRERPPRLPRPRPRPFTMPRP" and report
class A

Next sequence up: "RRIRERPPRLPRPRPRPWDKPRP"
class B

Next up: "RRIRLRPPRLPRPRPRPDHAPRP"
class B

Same read-out for "RRIRWRPPRLPRPRPRPKHYPRP" ?
class C

And the next one, "RRIRYRPPRLPRPRPRPCKQPRP" ?
class B

---

# Tested on: Escherichia coli TOP10
# Assay Details: shrunken log2 fold change of peptide-encoding DNA abundance (4.5 h post-induction vs induction); higher = less antimicrobial activity (less host growth inhibition)
# Protocol Conditions: time post-induction: 4.5 h; library: site-saturation at positions 5, 18, 19, 20
Please go through the items and note down their shrunken log2 fold change.
Give bare numbers.

Answered cases to consult:
[
  {
    "Sequence Content": "RRIRNRPPRLPRPRPRPVPCPRP",
    "shrunken log2 fold change": -0.237
  },
  {
    "Sequence Content": "RRIRPRPPRLPRPRPRPEKEPRP",
    "shrunken log2 fold change": -0.143
  },
  {
    "Sequence Content": "RRIRYRPPRLPRPRPRPCHNPRP",
    "shrunken log2 fold change": -1.52
  },
  {
    "Sequence Content": "RRIRNRPPRLPRPRPRPVVAPRP",
    "shrunken log2 fold change": -0.0949
  },
  {
    "Sequence Content": "RRIRIRPPRLPRPRPRPMQHPRP",
    "shrunken log2 fold change": -0.289
  }
]

// batch mode: one shrunken log2 fold change value per listed entry
1. RRIRTRPPRLPRPRPRPFDLPRP
2. RRIRARPPRLPRPRPRPVCRPRP

-0.29
0.505

---

# System: Escherichia coli TOP10
# Assay Details: shrunken log2 fold change of peptide-encoding DNA abundance (4.5 h post-induction vs induction); higher = less antimicrobial activity (less host growth inhibition)
# Protocol Conditions: time post-induction: 4.5 h; library: site-saturation at positions 5, 18, 19, 20
Please respond with reported shrunken log2 fold change for every item in the list.
Numbers only.

Solved entries:
[
  {
    "Sequence Content": "RRIRRRPPRLPRPRPRPSSFPRP",
    "shrunken log2 fold change": -0.0626
  },
  {
    "Sequence Content": "RRIRSRPPRLPRPRPRPTFSPRP",
    "shrunken log2 fold change": 0.019
  }
]

Please look at the items below and tell me shrunken log2 fold change for each one, in order.
1. RRIRVRPPRLPRPRPRPYTHPRP
2. RRIRSRPPRLPRPRPRPCYEPRP
3. RRIRRRPPRLPRPRPRPSMLPRP

1. -0.912
2. -0.167
3. -0.172

Please give shrunken log2 fold change, item by item, for the list that follows.
1. RRIRWRPPRLPRPRPRPDPDPRP
2. RRIRNRPPRLPRPRPRPYGHPRP
3. RRIRPRPPRLPRPRPRPDRAPRP

[0.545, -0.256, 0.622]

Can you look up the measured shrunken log2 fold change of "RRIRTRPPRLPRPRPRPENNPRP" for me?
-0.267

---

# Tested on: Escherichia coli TOP10
# Assay Details: shrunken log2 fold change of peptide-encoding DNA abundance (4.5 h post-induction vs induction); higher = less antimicrobial activity (less host growth inhibition)
# Protocol Conditions: time post-induction: 4.5 h; library: site-saturation at positions 5, 18, 19, 20
Endpoint Name: shrunken log2 fold change
Numbers only.

A selection of reference data follows.
[
  {
    "Sequence Content": "RRIRWRPPRLPRPRPRPHYQPRP",
    "Endpoint Name": "shrunken log2 fold change",
    "Quantitative Result": -0.00398
  },
  {
    "Sequence Content": "RRIRFRPPRLPRPRPRPIPKPRP",
    "Endpoint Name": "shrunken log2 fold change",
    "Quantitative Result": 0.179
  },
  {
    "Sequence Content": "RRIRWRPPRLPRPRPRPIWCPRP",
    "Endpoint Name": "shrunken log2 fold change",
    "Quantitative Result": 0.151
  },
  {
    "Sequence Content": "RRIRCRPPRLPRPRPRPMHAPRP",
    "Endpoint Name": "shrunken log2 fold change",
    "Quantitative Result": 0.315
  }
]

Take each entry in turn and give its shrunken log2 fold change.
1. RRIRCRPPRLPRPRPRPNIHPRP
2. RRIRTRPPRLPRPRPRPCYKPRP
3. RRIRQRPPRLPRPRPRPWWIPRP

1: -0.607; 2: -0.06; 3: -0.185

---

# Tested on: Escherichia coli TOP10
# Assay Details: shrunken log2 fold change of peptide-encoding DNA abundance (4.5 h post-induction vs induction); higher = less antimicrobial activity (less host growth inhibition)
# Protocol Conditions: time post-induction: 4.5 h; library: site-saturation at positions 5, 18, 19, 20
The threshold is inclusive: shrunken log2 fold change of exactly -0.5 counts as yes (1); values below receive no (0).

Recorded results for 2 sequences are shown here.
[
  {
    "Sequence Content": "RRIRCRPPRLPRPRPRPHTLPRP",
    "Subject Of Test": "Escherichia coli TOP10",
    "Label Value": "no (0)"
  },
  {
    "Sequence Content": "RRIRERPPRLPRPRPRPMYFPRP",
    "Subject Of Test": "Escherichia coli TOP10",
    "Label Value": "yes (1)"
  }
]

# next sequence below
Kindly determine if shrunken log2 fold change recorded for "RRIRGRPPRLPRPRPRPTVYPRP" is above or exactly -0.5.
yes (1)

---

# Test system: Escherichia coli TOP10
# Assay Details: shrunken log2 fold change of peptide-encoding DNA abundance (4.5 h post-induction vs induction); higher = less antimicrobial activity (less host growth inhibition)
# Protocol Conditions: time post-induction: 4.5 h; library: site-saturation at positions 5, 18, 19, 20
Endpoint Name: shrunken log2 fold change
Answers are plain numbers.

[
  {
    "Sequence Content": "RRIRQRPPRLPRPRPRPSFPPRP",
    "shrunken log2 fold change": -0.125
  },
  {
    "Sequence Content": "RRIRKRPPRLPRPRPRPMQQPRP",
    "shrunken log2 fold change": -0.000844
  },
  {
    "Sequence Content": "RRIRQRPPRLPRPRPRPLPMPRP",
    "shrunken log2 fold change": 0.0747
  }
]

Each sequence below has a recorded value; state its shrunken log2 fold change.
1. RRIRCRPPRLPRPRPRPGKNPRP
2. RRIRNRPPRLPRPRPRPADVPRP
3. RRIRWRPPRLPRPRPRPVDGPRP
4. RRIRARPPRLPRPRPRPGCAPRP
5. RRIRPRPPRLPRPRPRPYFRPRP
6. RRIRIRPPRLPRPRPRPLNWPRP
7. RRIRVRPPRLPRPRPRPLECPRP

1. -0.133
2. -0.289
3. 0.0816
4. 0.947
5. -0.463
6. -0.291
7. -0.041

Need shrunken log2 fold change for each of these sequences.
1. RRIRGRPPRLPRPRPRPAVKPRP
2. RRIRKRPPRLPRPRPRPPAWPRP
3. RRIRMRPPRLPRPRPRPCANPRP

0.0152
0.602
-0.0263

---

Give shrunken log2 fold change for every item shown.
# System: Escherichia coli TOP10;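 note: peptides expressed intracellularly from a pBAD plasmid library in pooled LB shake-flask culture, induced with 0.3% L-arabinose, DNA abundance read by NGS, three biological replicates, DESeq2 with apeglm shrinkage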
# Assay Details: shrunken log2 fold change of peptide-encoding DNA abundance (4.5 h post-induction vs induction); higher = less antimicrobial activity (less host growth inhibition)
# Protocol Conditions: time post-induction: 4.5 h; library: site-saturation at positions 5, 18, 19, 20
Give bare numbers.

Past entries and their recorded results:
[
  {
    "Sequence Content": "RRIRPRPPRLPRPRPRPVDIPRP",
    "shrunken log2 fold change": -0.288
  },
  {
    "Sequence Content": "RRIRIRPPRLPRPRPRPCETPRP",
    "shrunken log2 fold change": 0.105
  },
  {
    "Sequence Content": "RRIRRRPPRLPRPRPRPDHNPRP",
    "shrunken log2 fold change": 0.121
  },
  {
    "Sequence Content": "RRIRMRPPRLPRPRPRPFQPPRP",
    "shrunken log2 fold change": 0.0604
  },
  {
    "Sequence Content": "RRIRVRPPRLPRPRPRPGGNPRP",
    "shrunken log2 fold change": -0.0392
  },
  {
    "Sequence Content": "RRIRSRPPRLPRPRPRPTCHPRP",
    "shrunken log2 fold change": 0.024
  },
  {
    "Sequence Content": "RRIRWRPPRLPRPRPRPIWMPRP",
    "shrunken log2 fold change": -0.000467
  },
  {
    "Sequence Content": "RRIRGRPPRLPRPRPRPRPYPRP",
    "shrunken log2 fold change": 0.246
  }
]

Kindly give each listed record's shrunken log2 fold change.
1. RRIRLRPPRLPRPRPRPKRIPRP
2. RRIRQRPPRLPRPRPRPPMNPRP
3. RRIRKRPPRLPRPRPRPKWLPRP
4. RRIRYRPPRLPRPRPRPTSGPRP
5. RRIRERPPRLPRPRPRPIHYPRP

1: 0.109; 2: -0.299; 3: -0.0433; 4: 0.0452; 5: -0.0107

List shrunken log2 fold change for every entry below, keeping the order given.
1. RRIRGRPPRLPRPRPRPYGPPRP
2. RRIRIRPPRLPRPRPRPHWFPRP
3. RRIRERPPRLPRPRPRPEYMPRP

0.0138
0.022
-0.0257

# map each sequence to its shrunken log2 fold change
1. RRIRYRPPRLPRPRPRPTAIPRP
2. RRIRCRPPRLPRPRPRPIEPPRP

[-0.774, 0.159]
